System: Mast/stem cell growth factor receptor Kit (Homo sapiens), P10721 [D816V]
Sequence (P10721 whole entry D816V): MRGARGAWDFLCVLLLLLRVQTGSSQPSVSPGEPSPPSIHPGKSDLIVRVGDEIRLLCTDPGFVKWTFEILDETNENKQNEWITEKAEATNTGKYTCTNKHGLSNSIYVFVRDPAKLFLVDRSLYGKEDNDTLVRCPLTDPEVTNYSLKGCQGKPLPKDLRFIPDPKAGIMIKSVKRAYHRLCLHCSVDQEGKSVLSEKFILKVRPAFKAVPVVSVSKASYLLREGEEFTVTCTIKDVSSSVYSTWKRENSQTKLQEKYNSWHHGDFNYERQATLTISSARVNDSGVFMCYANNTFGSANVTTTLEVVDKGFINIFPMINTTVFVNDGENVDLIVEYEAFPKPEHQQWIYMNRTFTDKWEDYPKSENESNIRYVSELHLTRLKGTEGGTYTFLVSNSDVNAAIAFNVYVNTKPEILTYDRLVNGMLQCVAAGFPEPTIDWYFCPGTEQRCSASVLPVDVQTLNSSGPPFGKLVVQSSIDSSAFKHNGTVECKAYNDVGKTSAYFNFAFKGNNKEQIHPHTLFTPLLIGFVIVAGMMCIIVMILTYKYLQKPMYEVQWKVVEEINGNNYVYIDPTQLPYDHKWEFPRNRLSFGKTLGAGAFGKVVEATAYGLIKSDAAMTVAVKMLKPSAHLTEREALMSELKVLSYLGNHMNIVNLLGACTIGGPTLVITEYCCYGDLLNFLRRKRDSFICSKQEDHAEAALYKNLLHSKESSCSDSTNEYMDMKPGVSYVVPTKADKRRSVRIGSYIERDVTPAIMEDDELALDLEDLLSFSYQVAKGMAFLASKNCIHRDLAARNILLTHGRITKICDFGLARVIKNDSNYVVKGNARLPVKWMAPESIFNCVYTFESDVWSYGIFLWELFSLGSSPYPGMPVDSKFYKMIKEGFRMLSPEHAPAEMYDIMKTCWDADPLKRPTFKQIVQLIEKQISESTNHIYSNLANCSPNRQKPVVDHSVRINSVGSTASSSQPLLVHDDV
Settings: at 0.1 µM
Some molecules, each annotated with its measured inhibition.
# include the unit after the value

These solved cases illustrate the format of a correct answer.
molecule	study target	inhibition
NS(=O)(=O)c1ccc(N/N=C2\C(=O)Nc3ccc(C(=O)NCCCn4ccnc4)cc32)cc1	Mast/stem cell growth factor receptor Kit (Homo sapiens), P10721 [D816V]	6.28%
O=C(NCC1CC1)c1ccc(-c2cccc(C(=O)NC3CC3)c2)cc1	Mast/stem cell growth factor receptor Kit (Homo sapiens), P10721 [D816V]	2.24%
COc1cc2ncn(-c3cc(OCc4cccs4)c(C(N)=O)s3)c2cc1OC	Mast/stem cell growth factor receptor Kit (Homo sapiens), P10721 [D816V]	-0.06%

For the molecule CS(=O)(=O)CCNCc1cc(-c2cc3c(Nc4ccc(OCc5cccc(F)c5)c(Cl)c4)ncnc3s2)cs1 , give its measured inhibition value.
2.03%

State, in one line, measured inhibition of Nc1nccc(-c2c(-c3ccc(F)cc3)ncn2C2CCC(O)CC2)n1 (stereo unspecified)
-2.57%

Read off the recorded inhibition for CN(C)CCCNc1nccc(-c2c(-c3ccc(F)cc3)nn3cc(C(F)(F)F)ccc23)n1
1.94%

Item Cc1ccc(C(=O)NC(C)C)cc1-c1ccc(C(=O)NCC2CC2)cc1 : provide inhibition
14.1%

Answer with the recorded inhibition of C[C@@H](Oc1cc(-n2cnc3ccc(OC4CCN(C)CC4)cc32)sc1C(N)=O)c1ccccc1Cl only.
1.72%

Report measured inhibition; entry is CNC(=O)c1cncc(/C=C/c2c(C)cccc2C)c1
1.76%

Recall and state the measured inhibition for Cc1nnc(-c2ccc(C)c(-c3ccc(C(=O)NCc4ccc(Cl)cc4)cc3)c2)o1 .
4.88%

Tell me its inhibition given Fc1ccc(-c2c(-c3ccncc3)nc3n2CCS3)cc1 as the entry.
0.48%

Respond only with inhibition recorded for COc1ccc(C2=C(N3CCc4ccccc43)C(=O)NC2=O)cc1
3.56%

Look up inhibition of O=C1NC(=O)C(c2cccc(Cl)c2)=C1Nc1ccc(Cl)c(C(=O)O)c1 and report it.
1.8%

Note down inhibition recorded for Fc1ccc(-c2ncn(CCCN3CCOCC3)c2-c2ccncc2)cc1
0.65%

Return the recorded inhibition value; entry: O=C(Nc1ccc(Oc2ccc3[nH]c(NC(=O)c4ccccc4)nc3c2)cc1)Nc1cc(C(F)(F)F)ccc1F
1.52%

Specify reported inhibition for the molecule shown: COc1cc2ncn(-c3cc(OCCc4ccccc4)c(C(N)=O)s3)c2cc1OC
5.33%

Tell me measured inhibition for c1ccc(-c2n[nH]cc2-c2ccnc(-c3ccc(OCCN4CCOCC4)cc3)c2)nc1 please.
-0.77%

Tell me measured inhibition for O=C(Nc1n[nH]c2nc(-c3ccco3)ccc12)C1CC1 please.
-0.41%

Give the measured inhibition for Fc1ccc(-c2ncn(C3CCNCC3)c2-c2ccnc(Oc3ccc4c(c3)OCO4)n2)cc1
4.71%

Note inhibition for the molecule shown: O=C(Nc1n[nH]c2cc(-c3ccccc3)ccc12)C1CC1
3.94%

Consider the molecule Clc1ccc(CNc2nccc(-c3cnn4ncccc34)n2)cc1 and give its recorded inhibition.
0.92%

* * *

Target: Calcium/calmodulin-dependent protein kinase type II subunit alpha (Homo sapiens)
Conditions: at 0.1 µM
Below is a list of entries, each paired with its recorded inhibition value.
# value in %; strip the unit string

structure	inhibition / %
NS(=O)(=O)c1ccc(N/N=C2\C(=O)Nc3ccc(C(=O)NCCCn4ccnc4)cc32)cc1	3.04
COc1cc(Nc2ncc(-c3ccccc3)o2)cc(OC)c1OC	-3.81
COc1ccc2ncn(-c3cc(O[C@H](C)c4ccccc4Cl)c(C(N)=O)s3)c2c1	1.3
O=C(Nc1n[nH]c2cc(-c3ccccc3)ccc12)C1CC1	3.14

Please respond with reported inhibition (system Calcium/calmodulin-dependent protein kinase type II subunit alpha (Homo sapiens)) for O=C(Nc1n[nH]c2nc(-c3ccco3)ccc12)C1CC1 .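 Also: reported values are averages (mean inhibition of CAMK2A).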
1.71

Attribution: ChEMBL document CHEMBL1961873
